pIC50 by entry:
Biological target: Prostaglandin E2 receptor EP3 subtype (Homo sapiens)
Assay: Displacement of [3H]PGE2 from human EP3 receptor in buffer
Remember, pIC50 is on a log scale: it is -log10 of the molar concentration.

The cases that follow already have their pIC50 on record.
{"compound": "O=C(/C=C/c1cccc2c1N(Cc1ccc(Cl)cc1Cl)C(=O)C2(F)F)NS(=O)(=O)c1ccc(F)c(F)c1", "assayed.target": "Prostaglandin E2 receptor EP3 subtype (Homo sapiens)", "pIC50": 9.70}
{"compound": "CC1C(=O)N(Cc2ccc3ccccc3c2)c2c(/C=C/C(=O)NS(=O)(=O)c3ccc(Cl)c(Cl)c3)cccc21 (centres undefined)", "assayed.target": "Prostaglandin E2 receptor EP3 subtype (Homo sapiens)", "pIC50": 9.22}

Notebook: pull reported pIC50 for Prostaglandin E2 receptor EP3 subtype (Homo sapiens), entry `O=C(/C=C/c1cccc2c1N(Cc1ccc3ccccc3c1)C(=O)C2(F)F)NS(=O)(=O)c1cccs1`
6.70

Enter reported pIC50 observed with Prostaglandin E2 receptor EP3 subtype (Homo sapiens) for O=C(/C=C/c1cccc2c1N(Cc1ccc3ccccc3c1)C(=O)C2O)NS(=O)(=O)c1cc(F)c(F)cc1F (centres undefined)
9.22

====

Assay: Metabolic stability in dog liver microsomes assessed as parent compound remaining after 30 mins
Format: ADME, Canis lupus familiaris, Microsome
Conditions: read-out: Stability
assay.metric: remaining at 0.5 h (%)
Write down the numeric answer in % and omit the unit.

{"molecule": "CC1C(=O)N(Cc2ccc3ccccc3c2)c2c(/C=C/C(=O)NS(=O)(=O)c3cccs3)cccc21 (centres undefined)", "remaining at 0.5 h, %": 81.8}
{"molecule": "CC1C(=O)N(Cc2ccc3ccccc3c2)c2c(/C=C/C(=O)NS(=O)(=O)c3cc(Cl)c(Cl)s3)cccc21 (centres undefined)", "remaining at 0.5 h, %": 67.7}
{"molecule": "O=C(/C=C/c1cccc2c1N(Cc1ccc3ccccc3c1)C(=O)C2)NS(=O)(=O)c1cc(Cl)c(Cl)s1", "remaining at 0.5 h, %": 79.5}

Bench note: what remaining at 0.5 h did `O=C(/C=C/c1cccc2c1N(Cc1ccc(Cl)cc1Cl)C(=O)C2(F)F)NS(=O)(=O)c1cc(Cl)c(Cl)s1` show?
83.3

====

Experiment: Metabolic stability in mouse liver microsomes assessed as parent compound remaining after 30 mins
Type: ADME, Microsome
Conditions: read-out: Stability
assay.metric: remaining at 0.5 h (%)
Response body: numeric value in %, unit text excluded.

{"molecule": "O=C(/C=C/c1cccc2c1N(Cc1ccc(Cl)cc1Cl)C(=O)C2)NS(=O)(=O)c1ccc(F)c(F)c1", "remaining at 0.5 h [%]": 39.1}

Please look up its remaining at 0.5 h: `O=C(/C=C/c1cccc2c1N(Cc1ccc3ccccc3c1)C(=O)C2(F)F)NS(=O)(=O)c1ccc(Cl)c(Cl)c1`
41.3

Find the recorded remaining at 0.5 h belonging to `O=C(/C=C/c1cccc2c1N(Cc1ccc3ccccc3c1)C(=O)C2)NS(=O)(=O)c1ccc(Cl)c(Cl)c1` and report it.
15.7

Requested read-out: remaining at 0.5 h. Entry: CC1C(=O)N(Cc2ccc(Cl)cc2Cl)c2c(/C=C/C(=O)NS(=O)(=O)c3cc(F)c(F)cc3F)cccc21 (stereo not given)
4.85

====

Target: Prostaglandin E2 receptor EP3 subtype (Homo sapiens, UniProt P43115)
Assay: Displacement of [3H]PGE2 from human EP3 receptor in presence of 10% human serum
pIC50: −log10 of the molar value.
# if value of pIC50 reaches 8, tag satisfied; if it stays below, tag not satisfied

Known results for compounds:
{"compound": "O=C(/C=C/c1cccc2c1N(Cc1ccc3ccccc3c1)C(=O)C2)NS(=O)(=O)c1ccc(Cl)c(Cl)c1", "class.assignment": "satisfied"}
{"compound": "O=C(/C=C/c1cccc2c1N(Cc1ccc(Cl)cc1Cl)C(=O)C2(F)F)NS(=O)(=O)c1cc(F)c(F)cc1F", "class.assignment": "satisfied"}
{"compound": "O=C(/C=C/c1cccc2c1N(Cc1ccc(Cl)cc1Cl)C(=O)C2)NS(=O)(=O)c1ccc(F)c(F)c1", "class.assignment": "satisfied"}
{"compound": "CC1C(=O)N(Cc2ccc(Cl)cc2Cl)c2c(/C=C/C(=O)NS(=O)(=O)c3cc(F)c(F)cc3F)cccc21 (centres undefined)", "class.assignment": "satisfied"}
{"compound": "O=C(/C=C/c1cccc2c1N(Cc1ccc(F)c(F)c1)C(=O)C2)NS(=O)(=O)c1ccc(F)c(F)c1", "class.assignment": "not satisfied"}
{"compound": "CC1C(=O)N(Cc2ccc3ccccc3c2)c2c(/C=C/C(=O)NS(=O)(=O)c3ccc(Cl)c(Cl)c3)cccc21 (centres undefined)", "class.assignment": "satisfied"}
{"compound": "CC1C(=O)N(Cc2ccc3ccccc3c2)c2c(/C=C/C(=O)NS(=O)(=O)c3cccs3)cccc21 (centres undefined)", "class.assignment": "not satisfied"}

Could you now look at the following compound, please?
Does the compound `O=C(/C=C/c1cccc2c1N(Cc1ccc(Cl)cc1Cl)C(=O)C2=O)NS(=O)(=O)c1cc(Cl)c(Cl)s1` have recorded pIC50 that is 8 or more?
not satisfied

====

Assay: Metabolic stability in monkey liver microsomes assessed as parent compound remaining after 30 mins
Type: ADME, Macaca mulatta, Microsome
Conditions: rhesus monkey, read-out: Stability
assay.metric: remaining at 0.5 h (%)
Reply numerically in %, unit not repeated.

Consider the worked cases shown below.
{"molecule": "CC1C(=O)N(Cc2ccc3ccccc3c2)c2c(/C=C/C(=O)NS(=O)(=O)c3cccs3)cccc21 (stereo not drawn)", "remaining at 0.5 h / %": 35.3}
{"molecule": "O=C(/C=C/c1cccc2c1N(Cc1ccc(Cl)cc1Cl)C(=O)C2(F)F)NS(=O)(=O)c1cc(Cl)c(Cl)s1", "remaining at 0.5 h / %": 67.3}

Requested field: remaining at 0.5 h. Item: `O=C(/C=C/c1cccc2c1N(Cc1ccc(Cl)cc1Cl)C(=O)C2)NS(=O)(=O)c1cc(Cl)c(Cl)s1`
76.9

====

Measured remaining at 0.5 h accompanies every entry in the list below.
Assay: Metabolic stability in human liver microsomes assessed as parent compound remaining after 30 mins
Assay type: ADME, Microsome
Conditions: read-out: Stability
Your answer should be a plain number; it is taken to be in %.

# annotated cases, reported remaining at 0.5 h shown
{"compound": "O=C(/C=C/c1cccc2c1N(Cc1ccc3ccccc3c1)C(=O)C2)NS(=O)(=O)c1cc(F)c(F)cc1F", "unit.text": "%", "remaining at 0.5 h": 73.9}
{"compound": "O=C(/C=C/c1cccc2c1N(Cc1ccc(Cl)cc1Cl)C(=O)C2)NS(=O)(=O)c1ccc(F)c(F)c1", "unit.text": "%", "remaining at 0.5 h": 54.3}
{"compound": "CC1C(=O)N(Cc2ccc3ccccc3c2)c2c(/C=C/C(=O)NS(=O)(=O)c3cc(F)c(F)cc3F)cccc21 (centres undefined)", "unit.text": "%", "remaining at 0.5 h": 13.7}

Here is another compound to look at.
So what's the measured remaining at 0.5 h for this one? `O=C(/C=C/c1cccc2c1N(Cc1ccc3ccccc3c1)C(=O)C2(F)F)NS(=O)(=O)c1cc(Cl)c(Cl)s1`
79.3

====

Biological target: Prostaglandin E2 receptor EP3 subtype (Homo sapiens)
Sequence (P43115 whole entry): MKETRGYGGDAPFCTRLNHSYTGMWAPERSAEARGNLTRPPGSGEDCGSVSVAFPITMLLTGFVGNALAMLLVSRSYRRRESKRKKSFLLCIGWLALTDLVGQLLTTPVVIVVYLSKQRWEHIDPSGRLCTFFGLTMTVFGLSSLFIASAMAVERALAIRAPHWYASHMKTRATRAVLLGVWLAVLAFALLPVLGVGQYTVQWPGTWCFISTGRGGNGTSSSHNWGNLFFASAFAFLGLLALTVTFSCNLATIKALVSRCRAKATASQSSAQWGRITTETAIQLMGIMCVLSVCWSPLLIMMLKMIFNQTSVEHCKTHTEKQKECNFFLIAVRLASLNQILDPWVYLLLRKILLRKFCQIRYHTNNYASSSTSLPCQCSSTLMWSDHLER
Assay: Displacement of [3H]PGE2 from human EP3 receptor in buffer
pIC50: −log10 of the molar value.
Classify by measured pIC50: MET if it is equal to or exceeds 9, NOT MET if it is smaller.

For orientation, consider the following solved cases.
{"compound": "O=C(/C=C/c1cccc2c1N(Cc1ccc3ccccc3c1)C(=O)C21OCCO1)NS(=O)(=O)c1cccs1", "class.assignment": "NOT MET"}
{"compound": "O=C(/C=C/c1cccc2c1N(Cc1ccc3ccccc3c1)C(=O)C2(F)F)NS(=O)(=O)c1cc(F)c(F)cc1F", "class.assignment": "MET"}

Identify whether the reported pIC50 of the following compound is 9 or greater: CC1C(=O)N(Cc2ccc3ccccc3c2)c2c(/C=C/C(=O)NS(=O)(=O)c3cc(Cl)c(Cl)s3)cccc21 (stereo not drawn)
NOT MET

Does the reported pIC50 for `O=C(/C=C/c1cccc2c1N(Cc1ccc(Cl)cc1Cl)C(=O)C2)NS(=O)(=O)c1cccc(Cl)c1` fall at or above the 9 mark?
MET

For this compound, is measured pIC50 9 or higher? CC1C(=O)N(Cc2ccc(Cl)cc2Cl)c2c(/C=C/C(=O)NS(=O)(=O)c3ccc(F)c(F)c3)cccc21 (stereo not drawn)
MET

# bool: pIC50 of `O=C(/C=C/c1cccc2c1N(Cc1ccc(F)c(F)c1)C(=O)C2)NS(=O)(=O)c1ccc(Cl)c(Cl)c1` >= 9
MET

Hello, I need to know if `O=C(/C=C/c1cccc2c1N(Cc1ccc3ccccc3c1)C(=O)C2(CO)CO)NS(=O)(=O)c1cc(Cl)c(Cl)s1` has measured pIC50 not below 9. Thanks!
NOT MET

pIC50 >= 9 for `O=C(/C=C/c1cccc2c1N(Cc1ccc3ccccc3c1)C(=O)C2(F)F)NS(=O)(=O)c1cc(Cl)c(Cl)s1` ?
NOT MET
